Numbers sourced from PubChem BioAssay (NCI).

- System: MCF7 breast
- assaySummary: NCI-60 one-dose screen, 48 h
- experimentalContext: 10 µM unless noted
About 83,000 compounds went through this panel and 20% of them were active in at least one assay; those are over-represented in the sample as a whole. Active and inactive are the calls of the source. How the source made its calls: active means growth percent below 10; inactive means the rest.
Labels: t for active, f for inactive

• CCCn1cc2c3c(cccc31)[C@H]1C[C@@H](C)CN(C)[C@@H]1C2 = f
• CCOC(=O)c1ccccc1C(=O)OCC = f
• CCN1C(=O)NC(=O)C(C)(N2C(=O)c3c(F)c(F)c(F)c(F)c3C2=O)C1=O (centres undefined) = f
• N#CC(NC(=O)CCl)=C(Cl)Cl = f
• O=NN1CCCCC1 = f
• C[C@H](O)CCC(=O)c1ccoc1 = f
• CC(Oc1ccc(-c2ccccc2)cc1)C(=O)O (centres undefined) = f
• CCCC[C@H]1C(=O)O[C@H](C)[C@H](NC(=O)c2cccc(NC=O)c2O)C(=O)O[C@@H](C)[C@@H]1OC(=O)CC(C)C = f
• Oc1cc(N2CC2)c(O)cc1N1CC1 = t
• O=C1c2ccccc2C(=O)N1N1CC1c1ccccc1 (centres undefined) = f
• C/C(=C(\c1ccc(OCCN2CCOCC2)cc1)c1ccc(OC(=O)Cc2ccccc2)cc1)c1ccc(Cl)cc1 = f
• Cc1cc[c-]cc1.Fc1c[c-]c(-c2ccccn2)c(F)c1.N#CCC[PH+](CCC#N)c1ccccc1.[Pt+2] = f
• COC[C@H]1OC(=O)c2coc3c2[C@@]1(C)C1=C(C3=O)[C@@H]2CCC(=O)[C@@]2(C)C[C@H]1OC(C)=O = f
• C[C@]12CCc3sc(Nc4ccc(F)cc4)nc3C1=CC[C@@H]1[C@@H]2CC[C@]2(C)C(=O)CC[C@@H]12 = f
• NC(=O)Oc1cc(OC(N)=O)cc(N(CCCl)CCCl)c1 = f
• CC(=O)c1cccc(S(=O)(=O)F)c1 = f
• Cc1cc(Br)c([N+](=O)[O-])cc1[N+](=O)[O-] = f
• CCCCn1c(=O)c(C(=O)NCc2ccccc2Cl)c(O)c2ccccc21 = f
• O=[N+]([O-])c1cc(Cl)c(Cl)c([N+](=O)[O-])c1Cl = f
• O=C(O)C(F)F = f
• S=P(SP(=S)(c1ccccc1)c1ccccc1)(c1ccccc1)c1ccccc1 = f
• Nc1ccc(S(=O)(=O)F)cc1 = f
• CC(=O)OC1CC2(O)C(CCC3(C)C(c4ccc(=O)oc4)CCC32O)C2(C)CCC(OC3OC(CO)C(O)C(O)C3O)C=C12 (centres undefined) = t
• CC[C@H](C)[C@H](NC(=O)[C@H]1CCCCN1C)C(=O)N(C)[C@H](C[C@@H](OC(C)=O)c1nc(C(=O)NC23C4C5C2C2C3C4C52C(=O)OC)cs1)C(C)C (some centres undefined) = f
• CC1=C2[C@H]3OC(=O)[C@@H](C)[C@@H]3CC[C@@]2(C)C=CC1=O = f
• COCC1OC2OC3C(COC)OC(OC4C(COC)OC(OC5C(COC)OC(OC6C(COC)OC(OC7C(COC)OC(OC8C(COC)OC(OC1C(O)C2O)C(O)C8O)C(O)C7O)C(O)C6O)C(O)C5O)C(O)C4O)C(O)C3O (centres undefined) (tested in a mixture with another compound) = f
• C=CC[PH+](c1ccccc1)c1ccccc1.C=CC[PH+](c1ccccc1)c1ccccc1.[Pt+2].[S-]c1ncccn1.[S-]c1ncccn1 = f
• C[N+]1(CC#CC[N+]2(C)CCCC2)CCCC1 = f
• Oc1ccccc1C=NCCN=Cc1ccccc1O.[Fe] = f
• O=C(CBr)OCCOC(=O)CBr = f
• N[C@@H](CCC(=O)CCl)C(=O)O = f
• CC[C@H](C)[C@H](NC(=O)CN(C)C)C(=O)N(C)[C@H](C[C@@H](OC(C)=O)c1nc(C(=O)NC23CC(C(=O)OC)(C2)C3)cs1)C(C)C = f
• O=C(O)CNCP(=O)(O)O = f
• O=C1C=C(N2CC2)c2ccccc2C1=O = f
• CCOP(=O)(NC)OCC = f
• CC[C@@H](C)C(=O)O[C@H]1[C@H](O)[C@H]2[C@@H](CN3C[C@@H](C)CC[C@H]3[C@@]2(C)O)[C@@H]2C[C@]34O[C@]5(O)[C@@H](OC(=O)[C@@](C)(O)CC)CC[C@@]3(C)[C@@H]5[C@@H](OC(C)=O)[C@@H](OC(C)=O)[C@H]4[C@@]21O = f
• C[C@]12CC[C@H]3[C@@H](C[C@@H]4SC(Nc5ccccc5)=N[C@@]45C/C(=N/O)CC[C@]35C)[C@@H]1CCC2=O = f
• COc1ccc(O)c2c(=O)c3c(OC)cc4c(c3oc12)[C@@H]1C=CO[C@@H]1O4 = t
• COc1ccc(C(C#N)C(C)=O)cc1 (centres undefined) = f
